system: SARS-CoV-2 (USA-WA1/2020) in Calu-3 cells; type: cell-based; settings: low dose (100 nM), Calu-3, 48 h
endpoint name: dsRNA signal, AU Low (AU)
The answer is to be given in AU; state only the numeric part.

A selection of reference data follows.
compound | experimental value
CCS(=O)(=O)N1CC(CC#N)(n2cc(-c3ncnc4[nH]ccc34)cn2)C1 [Baricitinib (LY3009104, INCB028050)] | 24279.2
CN1CCN(c2ccc(Nc3cc(-c4cccc(-n5ccc6cc(C7CC7)cc(F)c6c5=O)c4CO)cn(C)c3=O)nc2)CC1 | 25024.9

Entry "N#CCNC(=O)c1ccc(-c2ccnc(Nc3ccc(N4CCOCC4)cc3)n2)cc1" ; dsRNA signal, AU Low = 15837.3

Entry "O=C(Nc1ccc2[nH]nc(-c3ccncc3)c2c1)[C@@H]1CCN(CC(=O)N2CCN(c3ccc(-c4ncccn4)cc3)CC2)C1" ; dsRNA signal, AU Low = 17905.7

Ref: paper PMC12142043
